Reported Ki by item:
# system.tested: α1a (Bovine) (Bos taurus, UniProt P18130)
# Sequence (P18130 whole entry): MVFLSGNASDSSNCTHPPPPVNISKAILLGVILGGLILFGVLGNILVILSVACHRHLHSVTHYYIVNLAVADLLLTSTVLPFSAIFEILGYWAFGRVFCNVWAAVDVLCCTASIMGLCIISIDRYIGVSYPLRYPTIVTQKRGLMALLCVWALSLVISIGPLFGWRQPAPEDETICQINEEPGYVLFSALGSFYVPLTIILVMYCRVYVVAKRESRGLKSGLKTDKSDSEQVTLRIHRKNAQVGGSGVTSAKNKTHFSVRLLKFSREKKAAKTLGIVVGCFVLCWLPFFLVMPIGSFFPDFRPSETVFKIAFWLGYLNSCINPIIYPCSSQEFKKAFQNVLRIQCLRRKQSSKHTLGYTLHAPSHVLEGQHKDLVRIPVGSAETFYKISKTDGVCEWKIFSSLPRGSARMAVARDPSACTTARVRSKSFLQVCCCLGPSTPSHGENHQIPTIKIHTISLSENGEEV
# assay.text: Radioligand binding, displacement of [3H]-prazosin from cloned α1a (bovine) expressed in LTK cells
# run.parameters: [3H]-prazosin 0.2 nM; cloned bovine α1a in LTK cell membranes; 25° C., 50 minutes
Structures can show the parent of a compound that is named as a salt.
assay.metric: Ki (nM)

> print(dat)
                                   compound                             system.tested  units.label  recorded.value
1  COc1ccccc1[C@H]1CCN(CCCCN2C(=O)COc3ccccc32)C1 [Example 18, Monohydrochloride]  α1a (Bovine) (Bos taurus, UniProt P18130)           nM            0.21
2  COc1ccccc1[C@@H]1CCN(CCn2c(=O)[nH]c3c(sc4ccccc43)c2=O)C1 [Example 25, Monohydrochloride]  α1a (Bovine) (Bos taurus, UniProt P18130)           nM            1.67
3  COc1ccccc1[C@H]1CCN(CCCCn2c(=O)[nH]c3c(sc4ccccc43)c2=O)C1 [Example 2, Monohydrochloride]  α1a (Bovine) (Bos taurus, UniProt P18130)           nM            0.02
4  COc1ccccc1[C@H]1CCN(CCCCn2c(=O)[nH]c3c(sc4ncccc43)c2=O)C1 [Example 8, Dihydrochloride]  α1a (Bovine) (Bos taurus, UniProt P18130)           nM            0.06

* * *

# system.tested: α1d (rat) (Rattus norvegicus)
# Sequence (P23944 whole entry): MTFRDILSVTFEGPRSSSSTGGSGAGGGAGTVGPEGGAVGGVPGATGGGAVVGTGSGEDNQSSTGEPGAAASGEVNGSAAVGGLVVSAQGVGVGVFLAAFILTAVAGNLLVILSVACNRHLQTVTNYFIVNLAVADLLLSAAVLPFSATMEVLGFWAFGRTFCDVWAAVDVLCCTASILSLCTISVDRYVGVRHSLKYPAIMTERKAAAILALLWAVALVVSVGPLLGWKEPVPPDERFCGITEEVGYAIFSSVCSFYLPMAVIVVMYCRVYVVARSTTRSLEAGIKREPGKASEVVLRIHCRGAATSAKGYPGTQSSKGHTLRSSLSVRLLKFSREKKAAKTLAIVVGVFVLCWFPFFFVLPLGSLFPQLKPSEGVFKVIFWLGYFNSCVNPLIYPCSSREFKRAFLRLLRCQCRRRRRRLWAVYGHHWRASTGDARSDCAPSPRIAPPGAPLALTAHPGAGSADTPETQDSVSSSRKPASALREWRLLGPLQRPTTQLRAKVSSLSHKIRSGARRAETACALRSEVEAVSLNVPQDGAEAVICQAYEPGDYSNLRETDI
# assay.text: Radioligand binding, displacement of [3H]-prazosin from cloned α1d (rat) expressed in LTK cells
# run.parameters: [3H]-prazosin 0.2 nM; cloned rat α1d in LTK cell membranes; 25° C., 50 minutes
Counter-ions that a name gives are not always drawn.
assay.metric: Ki (nM)

> print(dat)
                                   molecule  units.label  recorded.value
1  COc1ccccc1[C@H]1CCN(CCCCn2c(=O)[nH]c3c(sc4ncc(Cl)nc43)c2=O)C1 [Example 14, Dihydrochloride]           nM            0.47
2  COc1cccc([C@H]2CCN(CCCn3c(=O)[nH]c4c(sc5cccnc54)c3=O)C2)c1 [Example 21, Dihydrochloride]           nM            92.2
3  COc1ccccc1[C@H]1CCN(CCn2c(=O)[nH]c3c(sc4cccnc43)c2=O)C1 [Example 4, bis(hydrochloride) Salt]           nM            2.38
